target: human MASP2 (Homo sapiens); construct: Ig-kappa secretion signal (N, cleaved yes); test: Biochemical human MASP2 assay (FRET substrate); conditions: average IC50
Bridge positions count the residues as written; N and C are the ends. Square brackets hold non-standard residues; d marks the D form. Peptide text beside a SMILES is read from it. * marks the point of attachment. Oic = O=C(O)[C@@H]1C[C@@H]2CCCC[C@@H]2N1; Pen = CC(C)(S)[C@H](N)C(=O)O; X2 = N[C@@H](CN*)C(=O)O; Sar = CNCC(=O)O
PARAMETER MEASURED: IC50

Q: Lab note: need IC50 for CC[C@H](C)[C@H](NC(=O)[C@@H]1CSSC[C@H](NC(=O)[C@@H](NC(=O)[C@@H](N)C2CCOCC2)[C@@H](C)CC)C(=O)N[C@@H](CO)C(=O)N[C@@H](CCCNC(=N)N)C(=O)N[C@@H](CO)C(=O)N[C@@H](CC(C)C)C(=O)N2CCC[C@H]2C(=O)N2[C@@H](C[C@@H]3CCCC[C@@H]32)C(=O)N[C@@H]([C@@H](C)CC)C(=O)N1)C(=O)O (single isomer, unassigned) [Example 184] on human MASP2 (Homo sapiens), anyone have it?
A: 200 nM

Q: Lab note: need IC50 for CC[C@H](C)[C@H](NC(=O)CNC)C(=O)N[C@H]1CSSC(C)(C)[C@@H](C(=O)N[C@H](C(=O)N2CCC[C@H]2C(=O)NC[C@H](N)C(=O)O)[C@@H](C)CC)NC(=O)[C@H]([C@@H](C)CC)NC(=O)[C@@H]2C[C@@H]3CCCC[C@@H]3N2C(=O)[C@@H]2CCCN2C(=O)[C@H](CC(C)C)NC(=O)[C@H](CO)NC(=O)[C@H](CCCNC(=N)N)NC(=O)[C@H](CO)NC1=O [Example 467] (H-[Sar]ICSRSLP[Oic]I[Pen]IP-X2; disulfide 3-11) on human MASP2 (Homo sapiens), anyone have it?
A: 55 nM

Q: Lab note: need IC50 for CC[C@H](C)[C@H](NC(=O)[C@H](C)NC)C(=O)N[C@H]1CSSC(C)(C)[C@@H](C(=O)N[C@H](C(=O)N2CCC[C@H]2C(N)=O)[C@@H](C)CC)NC(=O)[C@H]([C@@H](C)CC)NC(=O)[C@@H]2C[C@@]3(CN2C(=O)[C@@H]2CCCN2C(=O)[C@@H](CC(C)(C)C)NC(=O)[C@H](CO)NC(=O)[C@H](CCCNC(=N)N)NC(=O)[C@H](CO)NC1=O)CC3(F)F (single isomer, unassigned; enantiomer 1) [Example 443] on human MASP2 (Homo sapiens), anyone have it?
A: 74 nM

----------
biological target: rat MASP1 (Rattus norvegicus, UniProt Q8CHN8); construct: Ig-kappa secretion signal (N, cleaved yes); assay: Biochemical rat MASP1 assay (FRET substrate); conditions: average IC50; recombinant rat MASP1, FRET substrate
Sequence (Q8CHN8 302-453 limits assumed): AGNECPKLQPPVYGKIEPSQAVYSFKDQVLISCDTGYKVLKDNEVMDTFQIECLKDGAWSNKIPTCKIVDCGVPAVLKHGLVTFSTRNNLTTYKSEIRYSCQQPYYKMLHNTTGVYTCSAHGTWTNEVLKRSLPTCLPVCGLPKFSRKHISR
Sequence (Q8CHN8 454-704 limits assumed): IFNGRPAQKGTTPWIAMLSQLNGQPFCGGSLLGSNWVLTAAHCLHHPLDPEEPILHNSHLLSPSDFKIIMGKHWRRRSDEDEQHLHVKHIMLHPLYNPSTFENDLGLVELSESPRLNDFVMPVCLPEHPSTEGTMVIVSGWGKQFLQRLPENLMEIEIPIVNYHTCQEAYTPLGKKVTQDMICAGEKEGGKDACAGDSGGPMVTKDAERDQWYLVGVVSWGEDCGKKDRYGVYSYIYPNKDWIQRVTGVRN
Bridge positions count the residues as written; N and C are the ends. Square brackets hold non-standard residues; d marks the D form. Peptide text beside a SMILES is read from it. Pro(4-spirocPr) = O=C(O)[C@@H]1CC2(CC2)CN1; tBuAla = CC(C)(C)C[C@H](N)C(=O)O; Pen = CC(C)(S)[C@H](N)C(=O)O
PARAMETER MEASURED: IC50 (nM)
Answer in nM, number only, no unit symbol.

Q: IC50 lookup needed for CC[C@H](C)[C@H](NC(=O)[C@H](C)NC)C(=O)N[C@H]1CSSC(C)(C)[C@@H](C(=O)N[C@H](C(=O)N2CCC[C@H]2C(N)=O)[C@@H](C)CC)NC(=O)[C@H]([C@@H](C)CC)NC(=O)[C@@H]2C[C@@]3(CN2C(=O)[C@@H]2CCCN2C(=O)[C@@H](CC(C)(C)C)NC(=O)[C@H](CO)NC(=O)[C@H](CCCNC(=N)N)NC(=O)[C@H](CO)NC1=O)CC3(F)F (single isomer, unassigned; enantiomer 1) , thanks.
A: 29

Q: IC50 lookup needed for CC[C@H](C)[C@H](NC(=O)[C@H](C)N)C(=O)N[C@H]1CSSC(C)(C)[C@@H](C(=O)N[C@H](C(=O)N2CCC[C@H]2C(=O)N[C@@H](CC(=O)O)C(N)=O)[C@@H](C)CC)NC(=O)[C@H]([C@@H](C)CC)NC(=O)[C@@H]2CC3(CC3)CN2C(=O)[C@@H]2CCCN2C(=O)[C@H](CC(C)(C)C)NC(=O)[C@H](CO)NC(=O)[C@H](CCCNC(=N)N)NC(=O)[C@H](CO)NC1=O [Example 45] (H-AICSRS[tBuAla]P[Pro(4-spirocPr)]I[Pen]IPD-NH2; disulfide 3-11) , thanks.
A: 40

----------
molecular target: human MASP2 (Homo sapiens, UniProt O00187); construct: Ig-kappa secretion signal (N, cleaved yes); assay: Biochemical human MASP2 assay (FRET substrate); conditions: average IC50
Sequence (O00187 297-444): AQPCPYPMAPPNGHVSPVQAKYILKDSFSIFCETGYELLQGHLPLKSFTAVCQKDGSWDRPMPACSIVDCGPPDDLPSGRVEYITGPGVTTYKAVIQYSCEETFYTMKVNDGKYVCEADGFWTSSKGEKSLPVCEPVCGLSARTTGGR
Sequence (O00187 445-686): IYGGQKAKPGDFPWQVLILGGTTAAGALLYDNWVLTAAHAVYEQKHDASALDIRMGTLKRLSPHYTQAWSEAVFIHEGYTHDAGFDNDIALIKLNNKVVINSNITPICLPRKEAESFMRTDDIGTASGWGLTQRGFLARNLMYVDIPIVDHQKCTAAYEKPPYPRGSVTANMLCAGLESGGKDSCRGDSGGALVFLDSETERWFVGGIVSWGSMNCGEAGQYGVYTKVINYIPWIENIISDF
Where a name gives a salt, the structure may show the parent alone. Numbered stars: 1 amine (or outer) side, 2 acyl side, 3 side chain; on linkers, the order of the positions; unused ones are H or OH. Bridge positions count the residues as written; N and C are the ends. Square brackets hold non-standard residues; d marks the D form. Peptide text beside a SMILES is read from it. X1 = O=C(C1[C@H]2CCCC[C@H]2C[C@H]1C(=O)[*:2])[C@@H]1CCCN1[*:1]; PEG9 = NCCOCCOCCOCCOCCOCCOCCOCCOCCOCCC(=O)O; Pro(4-spirocPr) = O=C(O)[C@@H]1CC2(CC2)CN1; Oic = O=C(O)[C@@H]1C[C@@H]2CCCC[C@@H]2N1; tBuAla = CC(C)(C)C[C@H](N)C(=O)O; Pen = CC(C)(S)[C@H](N)C(=O)O; ΔPro = O=C(O)[C@@H]1C=CCN1; NMeC = CN[C@@H](CS)C(=O)O; Sar = CNCC(=O)O
PARAMETER MEASURED: pIC50
Answer as the number alone; pIC50 is minus log10 of concentration in mol/L.

Check out these entries, answers already filled in.
Q: pIC50 lookup needed for CC[C@H](C)[C@H](NC(=O)[C@H](C)N)C(=O)N[C@H]1CSSC(C)(C)[C@@H](C(=O)N[C@H](C(=O)N2CCC[C@H]2C(=O)N[C@@H](CC(=O)O)C(N)=O)[C@@H](C)CC)NC(=O)[C@H]([C@@H](C)CC)NC(=O)[C@@H]2CC3(CC3)CN2C(=O)[C@@H]2CCCN2C(=O)[C@H](CC(C)(C)C)NC(=O)[C@H](CO)NC(=O)[C@H](CCCNC(=N)N)NC(=O)[C@H](CO)NC1=O [Example 45] (H-AICSRS[tBuAla]P[Pro(4-spirocPr)]I[Pen]IPD-NH2; disulfide 3-11) , thanks.
A: 7.61

Q: pIC50 lookup needed for CC[C@H](C)[C@H](NC(=O)[C@H](C)N)C(=O)N[C@H]1CSSC[C@@H](C(=O)N[C@H](C(=O)N2CCC[C@H]2C(=O)N[C@@H](CC(=O)O)C(N)=O)[C@@H](C)CC)N(C)C(=O)[C@H]([C@@H](C)CC)NC(=O)[C@@H]2C[C@@H]3CCCC[C@@H]3N2C(=O)[C@@H]2CCCN2C(=O)[C@H](CC(C)C)NC(=O)[C@H](CO)NC(=O)[C@H](CCCNC(=N)N)NC(=O)[C@H](CO)NC1=O [Example 185, AIC+SRSLP-(Oic)-I-((N-Me)C)+IPD-NH2] , thanks.
A: 6.61

Q: pIC50 lookup needed for CC[C@H](C)[C@H](NC(=O)CNC)C(=O)N[C@H]1CSSC(C)(C)[C@@H](C(=O)N[C@H](C(=O)N2CCC[C@H]2C(N)=O)[C@@H](C)CC)NC(=O)[C@H]([C@@H](C)CC)NC(=O)[C@@H]2C[C@@H]3CCCC[C@@H]3N2C(=O)[C@@H]2CCCN2C(=O)[C@H](CC(C)C)NC(=O)[C@H](CO)NC(=O)[C@H](CCCNC(=N)N)NC(=O)[C@H](CO)NC1=O [Example 376] (H-[Sar]ICSRSLP[Oic]I[Pen]IP-NH2; disulfide 3-11) , thanks.
A: 7.46

Q: pIC50 lookup needed for [2H][C@@H]1[C@H]([2H])CN2C(=O)[C@H](CC(C)C)NC(=O)[C@H](CO)NC(=O)[C@H](CCCNC(=N)N)NC(=O)[C@H](CO)NC(=O)[C@@H](NC(=O)[C@@H](NC(=O)[C@H](C)N)[C@@H](C)CC)CSSC(C)(C)[C@@H](C(=O)N[C@H](C(=O)N3CCC[C@H]3C(=O)N[C@@H](CC(=O)O)C(=O)O)[C@@H](C)CC)NC(=O)[C@H]([C@@H](C)CC)NC(=O)[C@@H]3C[C@@H]4CCCC[C@@H]4N3C(=O)[C@H]12 [Example 142] , thanks.
A: 6.90

Q: pIC50 lookup needed for CC[C@H](C)[C@H](NC(=O)[C@H](C)N)C(=O)N[C@H]1CSSC(C)(C)[C@@H](C(=O)N[C@H](C(=O)N2CCC[C@H]2C(=O)N[C@@H](CC(=O)O)C(=O)O)[C@@H](C)CC)NC(=O)[C@H]([C@@H](C)CC)NC(=O)[C@@H]2C[C@@H]3CCCC[C@@H]3N2C(=O)[C@@H]2C=CCN2C(=O)[C@H](CC(C)C)NC(=O)[C@H](CO)NC(=O)[C@H](CCCNC(=N)N)NC(=O)[C@H](CO)NC1=O [Example 237] (H-AICSRSL[ΔPro][Oic]I[Pen]IPD-OH; disulfide 3-11) , thanks.
A: 7.19

Next:
Q: pIC50 lookup needed for CC[C@H](C)[C@H](NC(=O)CNC)C(=O)N[C@H]1CSSC(C)(C)[C@@H](C(=O)N[C@H](C(=O)N2CCC[C@H]2C(=O)NCCOCCOCCOCCOCCOCCOCCOCCOCCOCCC(N)=O)[C@@H](C)CC)NC(=O)[C@H]([C@@H](C)CC)NC(=O)[C@@H]2CCCN2C(=O)[C@@H]2CCCN2C(=O)[C@H](CC(C)(C)C)NC(=O)[C@H](CO)NC(=O)[C@H](CCCNC(=N)N)NC(=O)[C@H](CO)NC1=O [Example 44] (H-[Sar]ICSRS[tBuAla]PPI[Pen]IP[PEG9]-NH2; disulfide 3-11) , thanks.
A: 7.14

Q: pIC50 lookup needed for CC[C@H](C)[C@H](NC(=O)[C@H](C)N)C(=O)N[C@H]1CSSC[C@@H](C(=O)N[C@H](C(=O)N2CCC[C@H]2C(=O)N[C@@H](CC(=O)O)C(N)=O)[C@@H](C)CC)N(C)C(=O)[C@H]([C@@H](C)CC)NC(=O)[C@@H]2CCCN2C(=O)[C@@H]2CCCN2C(=O)[C@H](CC(C)(C)C)NC(=O)[C@H](CO)NC(=O)[C@H](CCCNC(=N)N)NC(=O)[C@H](CO)NC1=O [Example 48, AIC+SRS-((tBu)A)-PPI-((N-Me)C)+IPD-NH2] (H-AICSRS[tBuAla]PPI[NMeC]IPD-NH2; disulfide 3-11) , thanks.
A: 6.65

Q: pIC50 lookup needed for CC[C@H](C)[C@H](NC(=O)CNC)C(=O)N[C@H]1CSSC(C)(C)[C@@H](C(=O)N[C@H](C(=O)N2CCC[C@H]2C(N)=O)[C@@H](C)CC)NC(=O)[C@H]([C@@H](C)CC)NC(=O)[C@@H]2C[C@@H]3CCCC[C@@H]3C2C(=O)[C@@H]2CCCN2C(=O)[C@H](CC(C)C)NC(=O)[C@H](CO)NC(=O)[C@H](CCCNC(=N)N)NC(=O)[C@H](CO)NC1=O (stereo partly drawn) [Example 67, (HCl Salt)] (H-[Sar]ICSRSL[X1]I[Pen]IP-NH2; disulfide 3-10) , thanks.
A: 7.37

Q: pIC50 lookup needed for CC[C@H](C)[C@H](NC(=O)CNC)C(=O)N[C@H]1CSSC(C)(C)[C@@H](C(=O)N[C@H](C(=O)N2CCC[C@H]2C(N)=O)[C@@H](C)CC)NC(=O)[C@H]([C@@H](C)CC)NC(=O)[C@@H]2C[C@@H]3CCCC[C@@H]3N2C(=O)[C@@H]2CCCN2C(=O)[C@H](CC(C)C)NC(=O)[C@H](CO)NC(=O)[C@H](CCCNC(=N)N)NC(=O)[C@H](CO)NC1=O [Example 109, ((N-Me)G)-IC+SRSLP-(Oic)-I-(Pen)+IP-NH2] (H-[Sar]ICSRSLP[Oic]I[Pen]IP-NH2; disulfide 3-11) , thanks.
A: 7.16
